Biological target: OR2W1 (Homo sapiens) (UniProt Q9Y3N9)
Sequence (Q9Y3N9 whole entry): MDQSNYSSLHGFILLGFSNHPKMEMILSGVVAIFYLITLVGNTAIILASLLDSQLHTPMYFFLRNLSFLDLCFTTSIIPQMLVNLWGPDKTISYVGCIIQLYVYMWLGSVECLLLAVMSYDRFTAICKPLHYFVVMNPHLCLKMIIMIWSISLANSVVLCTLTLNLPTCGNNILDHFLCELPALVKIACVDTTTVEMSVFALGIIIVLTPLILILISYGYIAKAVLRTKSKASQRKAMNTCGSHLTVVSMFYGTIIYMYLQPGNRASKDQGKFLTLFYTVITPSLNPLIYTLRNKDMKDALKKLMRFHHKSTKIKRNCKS
Conditions: stereoisomer not certain
observationType: odorant receptor agonist call

Solved cases (5 shown):
C=Cc1ccc(OCCCCOc2ccc(C=C)cc2)cc1 :: inactive
Cc1cccc(C)c1O :: inactive
CCCCCC=CCCC=O :: active
CSSSC :: active
CCC(=O)C(C)=O :: inactive

Which odorant receptor agonist call value belongs to CCCc1ccc(O)c(OC)c1 ?
inactive

Quick check: odorant receptor agonist call of CCC(C)CO (stereo not drawn) ?
active

For CSCc1ccccc1 , what is its reported odorant receptor agonist call?
active

// odorant receptor agonist call lookup, key: CCCCCCCCO
active

// odorant receptor agonist call lookup, key: C=C1CCC2(C(C)C)CC12 (stereo not drawn)
active

Dear colleague, I am looking for the recorded odorant receptor agonist call of the following compound: CC(=O)C=CC1=C(C)CCCC1(C)C
inactive

Return reported odorant receptor agonist call; argument: COC(=O)C(C)C
inactive

odorant receptor agonist call for CC(=O)c1cnccn1 ?
active

Returns the measured odorant receptor agonist call for the input compound. Input: CCCC(O)CC(=O)OCC (stereo not drawn)
inactive

Consider the compound CCCCCOC(=O)CCCCC and give its measured odorant receptor agonist call.
inactive
